All values here come from patent US5874469A.

Experiment: Solubility of leflunomide in fluoroalkyl hydrocarbon vehicle (filtration, extraction into mobile phase, HPLC)
Settings: 12205-1 perfluoro ester, organic solvent or mixture
Parameter: solubility (µg/mL)

Compound	Observed measurement
Cc1oncc1C(=O)Nc1ccc(C(F)(F)F)cc1 [leflunomide]	238

---

Assay: physchem
Conditions: perfluorooctanol, organic solvent or mixture

Chemical string	Output unit	solubility
C=CCN1C[C@H](C(=O)N(CCCN(C)C)C(=O)NCC)C[C@@H]2c3cccc4[nH]cc(c34)C[C@H]21	µg/mL	2700

---

Assay: physchem
Conditions: 12205-1 perfluoro ester, organic solvent or mixture
Parameter: solubility

Compound	Parameter	Observed measurement
CC(C)NCC(O)COc1ccc(CCOCC2CC2)cc1 (stereo not shown)	solubility	> 1000 µg/mL

---

Experiment: physchem
Conditions: perfluorooctanol, organic solvent or mixture

Molecule	solubility
Cc1oncc1C(=O)Nc1ccc(C(F)(F)F)cc1 [leflunomide]	2000 µg/mL

---

Test: Solubility of betaxolol and dipivefrin, dissolved together, in 12205-1 (extraction into pH 3.0 phosphate buffer, reverse phase HPLC)
Conditions: 12205-1 perfluoro ester, organic solvent or mixture
Parameter: solubility

Compound	Observed measurement
CNCC(O)c1ccc(OC(=O)C(C)(C)C)c(OC(=O)C(C)(C)C)c1 (stereo not shown) [dipivefrin]	> 1000 µg/mL

---

Experiment: physchem
Conditions: 12205-1 perfluoro ester, organic solvent or mixture
Parameter: solubility (mg/mL)

Compound	Parameter	Observed measurement
C=CCN1C[C@H](C(=O)N(CCCN(C)C)C(=O)NCC)C[C@@H]2c3cccc4[nH]cc(c34)C[C@H]21 [cabergoline]	solubility	1.03
